meta.source: the supplement of paper PMC10646978

Each item that follows carries a reported NF-kB reporter.
Test system: RAW-Dual (murine macrophage reporter line)
Assay remarks: NF-kB reporter (SEAP) activity fold change vs agonist alone; higher = enhanced NF-kB activity
Run parameters: modulator concentration 10 µM; agonist: LPS 0.1 ug/mL
Write the value as a bare number.

Solved cases below.
>>> result_number("CCC(=O)Nc1ccc(S(=O)(=O)N2CCC(Oc3ncnc(CC)c3F)C2)c(C)c1 (stereo not given)")
1.06
>>> result_number("Oc1ccccc1-c1cc(C(F)(F)F)on1")
0.982
>>> result_number("Nc1nc(Cl)nc2c1ncn2[C@@H]1O[C@H](CO)[C@@H](O)[C@@H]1F")
1.41
>>> result_number("COc1ccccc1N1CCN(CCCNc2cc(=O)n(C)c(=O)n2C)CC1.Cl")
1.08
>>> result_number("Br.COc1ccc(C2=NN(c3nc(-c4ccc(OC)c(F)c4)cs3)C(c3ccc(OC)cc3)C2)cc1 (stereo not given)")
0.997
>>> result_number("COc1ccc(CC(=O)Nc2nc(CSCc3ccc(F)cc3)cs2)cc1")
1.06
>>> result_number("COC(C)(CNC(=O)CSc1ccc(F)cc1)c1cccc(Cl)c1 (stereo not given)")
1.07
>>> result_number("O=C(COc1ccc2ccccc2c1)Nc1cnoc1")
1.14
>>> result_number("Cc1cccc(C)c1N(CC(=O)Nc1ccc(-c2ncon2)cc1)C(=O)C1CCS(=O)(=O)CC1")
0.939

Please examine the following record next.
Return value of NF-kB reporter for input CSCCC(NC(C)=O)C(=O)N1CCc2nc3ccc(F)cn3c(=O)c2C1 (stereo not given) , no commentary. 1.05

====

System: RAW-Dual (murine macrophage reporter line)
Assay remarks: NF-kB reporter (SEAP) activity fold change vs agonist alone; higher = enhanced NF-kB activity
Run parameters: modulator concentration 10 µM; agonist: CpG ODN 1826 0.5 ug/mL
NF-kB reporter vs 1: at or above is YES, below is NO.

Solved cases below.
>>> answer_label("COCCN1C(=O)CN(C2CCN(Cc3cc(OC)cc(OC)c3)CC2)C1=O")
"NO"
>>> answer_label("OCC1OC(Oc2ccc(O)cc2)C(O)C(O)C1O (centres undefined)")
"YES"
>>> answer_label("Br.C=CCn1c(=N)n(CC(=O)c2cccc([N+](=O)[O-])c2)c2ccccc21")
"NO"
>>> answer_label("CCS(=O)(=O)O.COC(=O)c1ccc2c(c1)NC(=O)/C2=C(\\Nc1ccc(N(C)C(=O)CN2CCN(C)CC2)cc1)c1ccccc1")
"NO"
>>> answer_label("Cc1nnc(NC(=O)CSc2nc3ccccc3[nH]2)s1")
"YES"
>>> answer_label("CN1C(C(=O)Nc2ccccn2)=C(O)c2sc(Cl)cc2S1(=O)=O")
"NO"
>>> answer_label("CN(C)CCOC(C)(c1ccccc1)c1ccccn1.O=C(O)CCC(=O)O (centres undefined)")
"NO"
>>> answer_label("C/C(O)=C(\\C#N)C(=O)Nc1ccc(C(F)(F)F)cc1")
"NO"
>>> answer_label("CC1(C)OC(=O)C=CC2(C)C1CC(O)C1(C)C2CCC2(C)C(c3ccoc3)OC(=O)C3OC321 (centres undefined)")
"YES"
>>> answer_label("O=c1cc(O)c(Cl)c[nH]1")
"NO"

Now take the following compound into account.
Say whether NC(=O)c1ccc(N2CCOCC2)c([N+](=O)[O-])c1 shows NF-kB reporter of 1 or more. YES

====

Each item that follows carries a reported NF-kB reporter.
Test system: RAW-Dual (murine macrophage reporter line)
Assay remarks: NF-kB reporter (SEAP) activity fold change vs agonist alone; higher = enhanced NF-kB activity
Run parameters: modulator concentration 10 µM; agonist: MPLA […]

>>> result("Cc1nccn1CC1CCc2c(c3ccccc3n2C)C1=O.Cl.O.O (stereo unspecified)")
0.765
>>> result("O=c1[nH]cnc2ccccc12")
0.215
>>> result("Cc1ccc(S(=O)(=O)n2cnc3ccccc32)cc1C")
1.07
>>> result("CN(C)CCCN(C(=O)Cc1ccc(F)cc1)c1nc2ccc(Cl)cc2s1.Cl")
1.08
>>> result("Cc1ccc(OCCSc2nc3ccccc3c(=O)[nH]2)cc1C")
1.02

Return value of NF-kB reporter for input CCOc1ccc(S(=O)(=O)NC(C)(C)C)cc1C , no commentary. 1.13

Return value of NF-kB reporter for input O=C1OC(=O)C2C3CCC(O3)C12 (stereo unspecified) , no commentary. 2.06

Return value of NF-kB reporter for input O=c1[nH]c(=O)n([C@H]2C[C@H](O)[C@@H](CO)O2)cc1I , no commentary. 0.992

Return value of NF-kB reporter for input N#Cc1c(N=Cc2ccc(Cl)cc2)sc2c1CCCC2 , no commentary. 0.89

Return value of NF-kB reporter for input CC[C@H](C)C(=O)O[C@H]1C[C@@H](C)C=C2C=C[C@H](C)[C@H](CC[C@@H]3C[C@@H](O)CC(=O)O3)[C@H]21 , no commentary. 1.77

Return value of NF-kB reporter for input Brc1ccc2ncnc(NCc3cccnc3)c2c1 , no commentary. 1.02

====

Test system: RAW-Dual (murine macrophage reporter line)
Assay remarks: NF-kB reporter (SEAP) activity fold change vs agonist alone; higher = enhanced NF-kB activity
Run parameters: modulator concentration 10 µM; agonist: CpG ODN 1826 0.5 ug/mL
Each item that follows carries a reported NF-kB reporter.
Write the value as a bare number.

Solved cases below.
>>> result_number("C[C@@H]1CCN(C(=O)CC#N)C[C@@H]1N(C)c1ncnc2[nH]ccc12.O=C(O)CC(O)(CC(=O)O)C(=O)O")
1.05
>>> result_number("CCc1ccc(OCCSc2nc3ccccc3n2CCO)cc1")
0.776
>>> result_number("Cc1cc(NC2CCCC2)nc2ccccc12")
0.798
>>> result_number("Oc1c(Cl)cc(Cl)cc1C=Nc1cc(Cl)cc(Cl)c1")
0.734
>>> result_number("Cc1cc2c(s1)Nc1ccccc1N=C2N1CCN(C)CC1")
0.278

Please examine the following record next.
// output NF-kB reporter; input Cc1ccc(Nc2ccc(NC(=O)C(C)C)cc2)nn1 ; system RAW-Dual (murine macrophage reporter line) 0.988

====

Test system: RAW-Dual (murine macrophage reporter line)
Assay remarks: NF-kB reporter (SEAP) activity fold change vs agonist alone; higher = enhanced NF-kB activity
Run parameters: modulator concentration 10 µM; agonist: LPS 0.1 ug/mL
Each item that follows carries a reported NF-kB reporter.
Write the value as a bare number.

>>> result_number("NC12CC3CC(CC(C3)C1)C2")
1.09
>>> result_number("CN(C)S(=O)(=O)N1CCC(CNC(=O)NC2CCCC2)CC1")
1.09
>>> result_number("O=C(NC12CC3CC(CC(C3)C1)C2)N1CCOCC1")
1.02
>>> result_number("CCc1c2c(nc3ccc(OC(=O)N4CCC(N5CCCCC5)CC4)cc13)-c1cc3c(c(=O)n1C2)COC(=O)[C@]3(O)CC.Cl.O.O.O")
1.41
>>> result_number("Cc1cc2ncc3c(n2n1)CCN(S(=O)(=O)N(C)C)C3")
1.01
>>> result_number("CC(C)Sc1ccc(CC(=O)N2CCC(S(C)(=O)=O)C2)cc1 (configuration not stated)")
1.12

Return value of NF-kB reporter for input CN(C)CC(c1ccc(O)cc1)C1(O)CCCCC1 (configuration not stated) , no commentary. 1.07

Return value of NF-kB reporter for input Cl.Clc1ccccc1CN1CCc2sccc2C1 , no commentary. 0.952

Return value of NF-kB reporter for input Cc1c(NC(=S)NC(=O)c2ccccc2[N+](=O)[O-])cccc1-c1nc2ccccc2o1 , no commentary. 1

Return value of NF-kB reporter for input N[C@H](Cc1ccccc1)C(=O)O , no commentary. 1.05

====

System: RAW-Dual (murine macrophage reporter line)
Assay remarks: NF-kB reporter (SEAP) activity fold change vs agonist alone; higher = enhanced NF-kB activity
Run parameters: modulator concentration 10 µM; agonist: LPS 0.1 ug/mL
Readout type: NF-kB reporter
Write the value as a bare number.

Solved cases below.
>>> result_number("COc1ccc(CNCc2cccc(C(F)(F)F)c2)cc1")
1.04
>>> result_number("CCOC(=O)C1CCCN(S(=O)(=O)Cc2ccccc2)C1 (stereo not drawn)")
0.879

Return value of NF-kB reporter for input C[C@H]1[C@@H](OC(=O)CCC(=O)O)O[C@@H]2O[C@]3(C)CC[C@H]4[C@H](C)CC[C@@H]1[C@@]24OO3 , no commentary. 1.12

Return value of NF-kB reporter for input c1ccc(CCn2c(COc3ccccc3)nc3ccccc32)cc1 , no commentary. 0.987

Return value of NF-kB reporter for input COC(=O)C1=CN(CC2CCCO2)C=C(C(=O)OC)C1c1ccc(F)cc1 (stereo not drawn) , no commentary. 0.875

Return value of NF-kB reporter for input Cc1cc(OCC(=O)NCCn2nc(C3CC3)ccc2=O)cc(C)c1Cl , no commentary. 1

Return value of NF-kB reporter for input CCC(=O)Nc1ccc(N2CCOCC2)c(Cl)c1 , no commentary. 0.945

Return value of NF-kB reporter for input O=C(CSC1CC(=O)N(c2ccc(C(=O)O)cc2)C1=O)Nc1ccc(Cl)cc1 (stereo not drawn) , no commentary. 0.931

Return value of NF-kB reporter for input CCCCNC(=O)Cc1ccc(Br)cc1 , no commentary. 0.904

Return value of NF-kB reporter for input CN(C)C=C1C(=O)N(c2nc3ccccc3s2)N=C1CSc1ccc(Cl)cc1 , no commentary. 1.02

Return value of NF-kB reporter for input CC1=CC(C)C2(COC(c3cccnc3)OC2)C(C)C1 (stereo not drawn) , no commentary. 0.788

Return value of NF-kB reporter for input CC(C)(C)C1CCc2c(sc(NC(=O)c3ccc(Cl)cc3)c2C(N)=O)C1 (stereo not drawn) , no commentary. 1.05

Return value of NF-kB reporter for input O=C(NCC1(O)CCOc2ccccc21)c1ccccc1C(F)(F)F (stereo not drawn) , no commentary. 1.31
